assay summary: self-splicing fitness, log relative to wild type (ln ratio); higher = more splicing; Tetrahymena group I intron in knt gene, E. coli kanamycin selection, DiMSum; sequences stand for … in CUCUCU…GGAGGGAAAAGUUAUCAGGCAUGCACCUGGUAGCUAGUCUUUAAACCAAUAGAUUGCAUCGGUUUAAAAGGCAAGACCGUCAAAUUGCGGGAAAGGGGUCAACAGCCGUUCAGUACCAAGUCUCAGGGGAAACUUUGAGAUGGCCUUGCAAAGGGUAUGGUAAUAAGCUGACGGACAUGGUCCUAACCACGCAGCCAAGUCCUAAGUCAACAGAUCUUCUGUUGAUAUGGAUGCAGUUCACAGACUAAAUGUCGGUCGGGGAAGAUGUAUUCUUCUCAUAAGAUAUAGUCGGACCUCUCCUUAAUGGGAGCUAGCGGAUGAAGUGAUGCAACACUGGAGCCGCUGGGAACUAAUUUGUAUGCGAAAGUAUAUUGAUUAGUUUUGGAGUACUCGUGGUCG;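 further: selection with 25 µg/mL kanamycin versus none on LB agar overnight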
details: 30 °C
measured attribute: self-splicing fitness (ln)
Could you keep your reply to the number by itself?

Some sequences with known self-splicing fitness (ln) results, for comparison:
>>> endpoint_value("AGCUAGCAAUAUUACGCGGG")
-3.3
>>> endpoint_value("AUUAAGCAAUAUUACGAGCU")
-0.659
>>> endpoint_value("UAUAAGCAAUAUUACGAUUC")
-2.68
>>> endpoint_value("CCGUAGCAAUAUUACGCGCG")
-2.15
>>> endpoint_value("GUUGAGCAAUAUUACGACUG")
-2.97
>>> endpoint_value("CGAAAGCAAUAUUACGCUCA")
-0.156

Which self-splicing fitness (ln) value is on record for CCCGAGCAAUAUUACGAGAA ?
-3.69

---

assay summary: self-splicing fitness, log relative to wild type (ln ratio); higher = more splicing; Tetrahymena group I intron in knt gene, E. coli kanamycin selection, DiMSum; sequences stand for … in CUCUCU…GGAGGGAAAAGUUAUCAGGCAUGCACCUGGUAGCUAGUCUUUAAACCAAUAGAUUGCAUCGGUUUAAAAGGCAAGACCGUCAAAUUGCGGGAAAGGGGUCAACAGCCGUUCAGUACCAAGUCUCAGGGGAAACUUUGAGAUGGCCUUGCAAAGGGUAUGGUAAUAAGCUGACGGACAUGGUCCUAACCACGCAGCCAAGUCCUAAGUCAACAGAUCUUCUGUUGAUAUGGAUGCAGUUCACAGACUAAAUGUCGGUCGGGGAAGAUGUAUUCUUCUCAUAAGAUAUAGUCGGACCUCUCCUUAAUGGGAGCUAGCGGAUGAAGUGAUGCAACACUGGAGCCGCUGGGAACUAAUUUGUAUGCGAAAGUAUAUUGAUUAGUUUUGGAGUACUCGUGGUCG
details: 37 °C
Measured self-splicing fitness (ln) by item
Could you keep your reply to the number by itself?

Some sequences with known self-splicing fitness (ln) results, for comparison:
>>> endpoint_value("ACACAGCAAUAUUACGAUUU")
0.0571
>>> endpoint_value("CCUGAGCAAUAUUACGAAUG")
-1.7
>>> endpoint_value("CGGCAGCAAUAUUACGCACG")
-2.1

Okay, next one:
Which self-splicing fitness (ln) value is on record for ACGCAGCAAUAUUACGUAGG ?
-2.86

---

assay summary: self-splicing fitness, log relative to wild type (ln ratio); higher = more splicing; Tetrahymena group I intron in knt gene, E. coli kanamycin selection, DiMSum; sequences stand for … in CUCUCU…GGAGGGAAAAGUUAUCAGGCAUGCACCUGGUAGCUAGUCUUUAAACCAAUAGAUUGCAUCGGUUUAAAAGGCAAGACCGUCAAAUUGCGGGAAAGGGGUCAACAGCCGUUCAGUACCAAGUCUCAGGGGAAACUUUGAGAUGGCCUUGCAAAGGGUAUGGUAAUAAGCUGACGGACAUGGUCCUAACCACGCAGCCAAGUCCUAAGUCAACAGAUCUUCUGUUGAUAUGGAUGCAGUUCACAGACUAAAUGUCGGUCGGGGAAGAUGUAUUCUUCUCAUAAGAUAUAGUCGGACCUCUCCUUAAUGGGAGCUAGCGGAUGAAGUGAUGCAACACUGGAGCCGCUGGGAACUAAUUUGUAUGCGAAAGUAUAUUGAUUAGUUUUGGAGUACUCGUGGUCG
details: 30 °C
Hi, to clarify the labels: true (1) covers self-splicing fitness (ln) from -3 upward, false (0) covers anything below -3.

>>> cat("GCCAAGCAAUAUUACGACCC")
"true (1)"
>>> cat("GAAGAGCAAUAUUACGCGCC")
"false (0)"
>>> cat("GUUUAGCAAUAUUACGUUAC")
"false (0)"
>>> cat("AGCUAGCAAUAUUACGUUAU")
"false (0)"
>>> cat("AGACAGCAAUAUUACGUGUG")
"true (1)"
>>> cat("AUACAGCAAUAUUACGUCCG")
"true (1)"

In plain terms: is recorded self-splicing fitness (ln) at least -3 for GAUUAGCAAUAUUACGGCGU ?
true (1)

In plain terms: is recorded self-splicing fitness (ln) at least -3 for UGGUAGCAAUAUUACGGUCU ?
true (1)

In plain terms: is recorded self-splicing fitness (ln) at least -3 for GAAAAGCAAUAUUACGCUGU ?
true (1)

In plain terms: is recorded self-splicing fitness (ln) at least -3 for GCCCAGCAAUAUUACGAGGG ?
false (0)

In plain terms: is recorded self-splicing fitness (ln) at least -3 for UAGAAGCAAUAUUACGAGGA ?
false (0)

In plain terms: is recorded self-splicing fitness (ln) at least -3 for AACAAGCAAUAUUACGGACA ?
true (1)

In plain terms: is recorded self-splicing fitness (ln) at least -3 for GUGGAGCAAUAUUACGGCAU ?
true (1)

In plain terms: is recorded self-splicing fitness (ln) at least -3 for UGGUAGCAAUAUUACGUGGA ?
true (1)

In plain terms: is recorded self-splicing fitness (ln) at least -3 for GCCUAGCAAUAUUACGCAUG ?
false (0)

In plain terms: is recorded self-splicing fitness (ln) at least -3 for CCCAAGCAAUAUUACGGGGG ?
false (0)

In plain terms: is recorded self-splicing fitness (ln) at least -3 for AUUGAGCAAUAUUACGUAUG ?
false (0)

In plain terms: is recorded self-splicing fitness (ln) at least -3 for CAGAAGCAAUAUUACGCUGG ?
true (1)

In plain terms: is recorded self-splicing fitness (ln) at least -3 for GGGCAGCAAUAUUACGUAUU ?
true (1)

In plain terms: is recorded self-splicing fitness (ln) at least -3 for CGAGAGCAAUAUUACGUGGG ?
true (1)

In plain terms: is recorded self-splicing fitness (ln) at least -3 for UUUCAGCAAUAUUACGGGCC ?
false (0)

In plain terms: is recorded self-splicing fitness (ln) at least -3 for CCCGAGCAAUAUUACGCGGG ?
false (0)

In plain terms: is recorded self-splicing fitness (ln) at least -3 for CAAGAGCAAUAUUACGCCGU ?
true (1)

In plain terms: is recorded self-splicing fitness (ln) at least -3 for UCCAAGCAAUAUUACGGAAU ?
false (0)

In plain terms: is recorded self-splicing fitness (ln) at least -3 for UGAAAGCAAUAUUACGGUGA ?
true (1)

In plain terms: is recorded self-splicing fitness (ln) at least -3 for GCAAAGCAAUAUUACGACAA ?
true (1)

In plain terms: is recorded self-splicing fitness (ln) at least -3 for GAUUAGCAAUAUUACGGCAU ?
true (1)

In plain terms: is recorded self-splicing fitness (ln) at least -3 for CCAGAGCAAUAUUACGGGUU ?
false (0)

In plain terms: is recorded self-splicing fitness (ln) at least -3 for GACUAGCAAUAUUACGCGUC ?
false (0)

In plain terms: is recorded self-splicing fitness (ln) at least -3 for GAAGAGCAAUAUUACGAACU ?
true (1)

In plain terms: is recorded self-splicing fitness (ln) at least -3 for CUUAAGCAAUAUUACGUACC ?
true (1)

In plain terms: is recorded self-splicing fitness (ln) at least -3 for GUUAAGCAAUAUUACGCGAU ?
false (0)

In plain terms: is recorded self-splicing fitness (ln) at least -3 for UAUAAGCAAUAUUACGCUAG ?
true (1)

---

assay summary: self-splicing fitness, log relative to wild type (ln ratio); higher = more splicing; Tetrahymena group I intron in knt gene, E. coli kanamycin selection, DiMSum; sequences stand for … in CUCUCU…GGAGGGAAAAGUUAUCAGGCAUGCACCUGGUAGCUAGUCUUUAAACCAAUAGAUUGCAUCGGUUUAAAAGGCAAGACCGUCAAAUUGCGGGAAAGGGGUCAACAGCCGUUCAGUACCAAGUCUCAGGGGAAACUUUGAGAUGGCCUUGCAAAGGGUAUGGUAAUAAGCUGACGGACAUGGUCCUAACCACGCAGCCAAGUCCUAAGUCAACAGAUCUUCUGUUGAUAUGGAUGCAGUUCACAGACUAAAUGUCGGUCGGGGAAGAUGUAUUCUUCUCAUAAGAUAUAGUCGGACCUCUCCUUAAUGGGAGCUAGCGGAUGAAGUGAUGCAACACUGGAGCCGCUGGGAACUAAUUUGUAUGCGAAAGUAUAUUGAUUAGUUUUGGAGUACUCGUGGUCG
details: 37 °C
Hi, to clarify the labels: MET covers self-splicing fitness (ln) from -1 upward, NOT MET covers anything below -1.

Completed entries (count: 5):
>>> cat("AUCUAGCAAUAUUACGUGCG")
"MET"
>>> cat("UACAAGCAAUAUUACGUGAC")
"NOT MET"
>>> cat("AGCAAGCAAUAUUACGUCCG")
"MET"
>>> cat("GCCCAGCAAUAUUACGUAGA")
"MET"
>>> cat("UUGAAGCAAUAUUACGCUGG")
"MET"

In plain terms: is recorded self-splicing fitness (ln) at least -1 for CCAAAGCAAUAUUACGAAUA ?
NOT MET

In plain terms: is recorded self-splicing fitness (ln) at least -1 for UAAUAGCAAUAUUACGUCUU ?
NOT MET

In plain terms: is recorded self-splicing fitness (ln) at least -1 for GUCGAGCAAUAUUACGUCUU ?
NOT MET

In plain terms: is recorded self-splicing fitness (ln) at least -1 for UACAAGCAAUAUUACGAAUA ?
MET

In plain terms: is recorded self-splicing fitness (ln) at least -1 for AACCAGCAAUAUUACGGGGA ?
NOT MET

In plain terms: is recorded self-splicing fitness (ln) at least -1 for GAAAAGCAAUAUUACGCUGG ?
NOT MET

In plain terms: is recorded self-splicing fitness (ln) at least -1 for CCUGAGCAAUAUUACGCAUU ?
NOT MET

In plain terms: is recorded self-splicing fitness (ln) at least -1 for ACGGAGCAAUAUUACGGUCC ?
NOT MET

Just for reference, the supplement of paper PMC7877785 is where these values come from.
